Hey, just so you know, these numbers are from patent US20090105116A1.

- targetEntity: CaCdc42 (R150K), sNBD-labeled and GMPPCP-loaded (Candida albicans)
- assayInfo: fluorescence titration of 1 µM sNBD-labeled, GMPPCP-loaded CaCdc42 (R150K)
readoutKind: Kd (µM)
Reply numerically in µM, unit not repeated.

Q. Fill in Kd for record EVNIKISTPFNAKHLAHVGIDDNGNFTGLPDTWKSLLQHSKIT (modifications not checked) [mCst20-cCla4]
A. 2.64

Q. Specify measured Kd for GSYTGLPIEWERLLSASGITKK (modifications not checked) [cCst20, P0CY24 491-512] .
A. 1160

Q. Assign Kd to the following record: VNIKISTPFNAKHLAHVGIDDNGSYTGLPIEWERLLSASGITKK (modifications not checked) [eCst20, P0CY24 469-512]
A. 0.046

Q. Fill in reported Kd for this entry: GGNSGVSGPINFTHKVHVGFDPASGSYTGLPIEWERLLSASGIT (modifications not checked) [mCla4-cCst20]
A. 0.031

Q. State, in one line, measured Kd of GNSGVSGPINFTHKVHVGFDPA (modifications not checked) [mCla4, O14427 227-248]
A. 4.2

Q. Given SGNFTGLPDTWKSLLQHSKITN (modifications not checked) [cCla4, O14427 249-270] , respond with its Kd.
A. 275

Q. Dear colleague, please send me the reported Kd for GGNSGVSGPINFTHKVHVGFDSGSGNFTGLPDTWKSLLQHSKIT (modifications not checked) [eCla4-SG, O14427 227-248; O14427 249-270] when you can.
A. 0.067

Q. Tell me Kd reported for GNSGVSGPINFTHKVHVGFDPASGNFTGLPDTWKSLLQHSKITN (modifications not checked) [eCla4, O14427 227-270]
A. 0.025

Q. Identify the reported Kd for the following entry. VNIKISTPFNAKHLAHVGIDDN (modifications not checked) [mCst20, P0CY24 469-490]
A. 0.43

Q. Consider the binder eCla4-SLAM (modifications not checked) peptide: GGNSGFPGPINFTHKVHVGFDRKSLTIYAQVQKNFTGLPDTWKSLLQHSKIT and give its recorded Kd.
A. 0.127

Q. Respond only with Kd recorded for EVNIKISTPFNAKHLAHVGIDPDNGNFTGLPDTWKSLLQHSKIT (modifications not checked) [mCst20-P-cCla4]
A. 0.093
